target: C3b (Homo sapiens, UniProt P01024); construct: the α’NT, MG6^α−8, anchor, and C-terminal complement (CTC) domains of the α-chain that are all shared between C3c and C3b; purchased Complement Technology (Tyler, TX, USA); test: SPR kinetic binding studies on immobilized C3b; conditions: pH 7.4, read-out: ka, Dataset 2
Sequence (P01024 23-667 limits assumed): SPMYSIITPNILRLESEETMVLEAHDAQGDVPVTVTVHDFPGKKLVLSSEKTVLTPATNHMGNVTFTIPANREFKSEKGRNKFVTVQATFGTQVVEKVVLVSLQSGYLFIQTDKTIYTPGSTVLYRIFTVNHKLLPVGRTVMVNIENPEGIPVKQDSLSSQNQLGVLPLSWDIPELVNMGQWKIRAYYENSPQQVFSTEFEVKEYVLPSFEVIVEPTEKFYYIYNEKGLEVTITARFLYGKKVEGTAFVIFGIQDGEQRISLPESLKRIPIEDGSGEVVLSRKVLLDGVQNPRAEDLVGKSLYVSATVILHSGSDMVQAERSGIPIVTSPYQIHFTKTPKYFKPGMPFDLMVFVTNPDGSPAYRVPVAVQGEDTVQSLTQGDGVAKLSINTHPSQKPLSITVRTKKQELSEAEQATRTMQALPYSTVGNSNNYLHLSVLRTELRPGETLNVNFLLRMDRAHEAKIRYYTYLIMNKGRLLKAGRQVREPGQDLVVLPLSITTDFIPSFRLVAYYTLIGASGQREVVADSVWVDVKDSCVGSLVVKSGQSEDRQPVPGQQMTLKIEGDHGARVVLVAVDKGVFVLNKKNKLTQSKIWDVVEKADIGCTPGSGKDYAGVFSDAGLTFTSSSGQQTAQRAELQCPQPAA
Sequence (P01024 749-1663 limits assumed): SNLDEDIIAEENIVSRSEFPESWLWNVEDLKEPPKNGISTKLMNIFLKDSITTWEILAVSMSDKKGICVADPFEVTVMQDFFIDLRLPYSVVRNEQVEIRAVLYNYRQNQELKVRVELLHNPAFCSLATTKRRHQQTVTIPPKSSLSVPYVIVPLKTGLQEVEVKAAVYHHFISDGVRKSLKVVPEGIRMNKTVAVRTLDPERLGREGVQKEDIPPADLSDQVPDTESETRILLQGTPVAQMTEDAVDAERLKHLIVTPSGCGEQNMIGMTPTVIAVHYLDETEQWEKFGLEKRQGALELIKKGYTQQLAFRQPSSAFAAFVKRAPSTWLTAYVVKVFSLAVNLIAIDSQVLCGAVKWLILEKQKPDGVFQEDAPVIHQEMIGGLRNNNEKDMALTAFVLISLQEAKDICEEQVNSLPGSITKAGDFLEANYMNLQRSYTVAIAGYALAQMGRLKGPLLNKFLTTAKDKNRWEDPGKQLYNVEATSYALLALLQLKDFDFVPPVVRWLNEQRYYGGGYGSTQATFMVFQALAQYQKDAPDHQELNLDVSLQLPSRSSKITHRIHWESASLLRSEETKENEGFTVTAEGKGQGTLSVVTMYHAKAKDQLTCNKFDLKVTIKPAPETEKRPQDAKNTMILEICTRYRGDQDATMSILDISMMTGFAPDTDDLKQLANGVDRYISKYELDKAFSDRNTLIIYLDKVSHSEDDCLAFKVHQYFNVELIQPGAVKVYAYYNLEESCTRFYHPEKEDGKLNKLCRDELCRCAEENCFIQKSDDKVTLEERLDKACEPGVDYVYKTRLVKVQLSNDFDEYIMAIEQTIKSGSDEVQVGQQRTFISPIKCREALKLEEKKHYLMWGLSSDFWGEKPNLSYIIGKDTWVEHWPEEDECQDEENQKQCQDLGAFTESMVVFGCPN
Bridge positions count the residues as written; N and C are the ends. Square brackets hold non-standard residues; d marks the D form. Peptide text beside a SMILES is read from it. Trp(1-Me) = Cn1cc(C[C@H](N)C(=O)O)c2ccccc21; NMeI = CC[C@H](C)[C@H](NC)C(=O)O; Sar = CNCC(=O)O

COMPOUND	kon (M⁻¹ s⁻¹)
CC[C@H](C)[C@H](NC(=O)[C@H](N)Cc1ccc(O)cc1)C(=O)N[C@H]1CSSC[C@@H](C(=O)N(C)[C@H](C(N)=O)[C@@H](C)CC)NC(=O)[C@H](CO)NC(=O)[C@H](Cc2c[nH]cn2)NC(=O)[C@H](C)NC(=O)CN(C)C(=O)[C@H](Cc2c[nH]c3ccccc23)NC(=O)[C@H](CO)NC(=O)[C@H](CCC(N)=O)NC(=O)[C@H](Cc2cn(C)c3ccccc23)NC(=O)[C@H](C(C)C)NC1=O [Cp40 D7S/R12S] (H-[dY]ICV[Trp(1-Me)]QSW[Sar]AHSC[NMeI]-NH2; disulfide 3-13)	120000
CC[C@H](C)[C@H](NC(=O)[C@H](N)Cc1ccc(O)cc1)C(=O)N[C@H]1CSSC[C@@H](C(N)=O)NC(=O)[C@H](CCCNC(=N)N)NC(=O)[C@H](Cc2c[nH]cn2)NC(=O)[C@H](C)NC(=O)CN(C)C(=O)[C@H](Cc2c[nH]c3ccccc23)NC(=O)[C@H](CC(=O)O)NC(=O)[C@H](CCC(N)=O)NC(=O)[C@H](Cc2cn(C)c3ccccc23)NC(=O)[C@H](C(C)C)NC1=O [Cp40 ΔmI14] (H-[dY]ICV[Trp(1-Me)]QDW[Sar]AHRC-NH2; disulfide 3-13)	1.28e+06
CC[C@H](C)[C@H](NC(=O)[C@H](N)Cc1ccc(O)cc1)C(=O)N[C@H]1CSSC[C@@H](C(=O)N(C)[C@H](C(N)=O)[C@@H](C)CC)NC(=O)[C@H](CCCCN)NC(=O)[C@H](Cc2c[nH]cn2)NC(=O)[C@H](C)NC(=O)CN(C)C(=O)[C@H](Cc2c[nH]c3ccccc23)NC(=O)[C@H](CC(=O)O)NC(=O)[C@H](CCC(N)=O)NC(=O)[C@H](Cc2cn(C)c3ccccc23)NC(=O)[C@H](C(C)C)NC1=O [Cp40 R12K] (H-[dY]ICV[Trp(1-Me)]QDW[Sar]AHKC[NMeI]-NH2; disulfide 3-13)	470000
CC[C@H](C)[C@H](NC(=O)[C@H](N)Cc1ccc(O)cc1)C(=O)N[C@H]1CSSC[C@@H](C(=O)N(C)[C@H](C(N)=O)[C@@H](C)CC)NC(=O)[C@H](CO)NC(=O)[C@H](Cc2c[nH]cn2)NC(=O)[C@H](C)NC(=O)CN(C)C(=O)[C@H](Cc2c[nH]c3ccccc23)NC(=O)[C@H](CC(=O)O)NC(=O)[C@H](CCC(N)=O)NC(=O)[C@H](Cc2cn(C)c3ccccc23)NC(=O)[C@H](C(C)C)NC1=O [Cp40 R12S] (H-[dY]ICV[Trp(1-Me)]QDW[Sar]AHSC[NMeI]-NH2; disulfide 3-13)	180000
CC[C@H](C)[C@H](NC(=O)[C@H](N)Cc1ccc(O)cc1)C(=O)N[C@H]1CSSC[C@@H](C(=O)N[C@@H](C)C(N)=O)NC(=O)[C@H](CCCNC(=N)N)NC(=O)[C@H](Cc2c[nH]cn2)NC(=O)[C@H](C)NC(=O)CN(C)C(=O)[C@H](Cc2c[nH]c3ccccc23)NC(=O)[C@H](CC(=O)O)NC(=O)[C@H](CCC(N)=O)NC(=O)[C@H](Cc2cn(C)c3ccccc23)NC(=O)[C@H](C(C)C)NC1=O [Cp40 mI14A] (H-[dY]ICV[Trp(1-Me)]QDW[Sar]AHRCA-NH2; disulfide 3-13)	1.11e+06
CC[C@H](C)[C@H](NC(C)=O)C(=O)N[C@H]1CSSC[C@@H](C(=O)N(C)[C@H](C(N)=O)[C@@H](C)CC)NC(=O)[C@H](CCCNC(=N)N)NC(=O)[C@H](Cc2c[nH]cn2)NC(=O)[C@H](C)NC(=O)CN(C)C(=O)[C@H](Cc2c[nH]c3ccccc23)NC(=O)[C@H](CC(=O)O)NC(=O)[C@H](CCC(N)=O)NC(=O)[C@H](Cc2cn(C)c3ccccc23)NC(=O)[C@H](C(C)C)NC1=O [Cp20, reference compound]	1.23e+06
CC[C@H](C)[C@H](NC(=O)[C@H](N)Cc1ccc(O)cc1)C(=O)N[C@H]1CSSC[C@@H](C(=O)N(C)[C@H](C(N)=O)[C@@H](C)CC)NC(=O)[C@H](CCCNC(=N)N)NC(=O)[C@H](Cc2c[nH]cn2)NC(=O)[C@H](C)NC(=O)CNC(=O)[C@H](Cc2c[nH]c3ccccc23)NC(=O)[C@H](CC(=O)O)NC(=O)[C@H](CCC(N)=O)NC(=O)[C@H](Cc2cn(C)c3ccccc23)NC(=O)[C@H](C(C)C)NC1=O	1.1e+06
CC[C@H](C)[C@H](NC(=O)[C@@H](C)N)C(=O)N[C@H]1CSSC[C@@H](C(=O)N(C)[C@H](C(N)=O)[C@@H](C)CC)NC(=O)[C@H](CCCNC(=N)N)NC(=O)[C@H](Cc2c[nH]cn2)NC(=O)[C@H](C)NC(=O)CN(C)C(=O)[C@H](Cc2c[nH]c3ccccc23)NC(=O)[C@H](CC(=O)O)NC(=O)[C@H](CCC(N)=O)NC(=O)[C@H](Cc2cn(C)c3ccccc23)NC(=O)[C@H](C(C)C)NC1=O	920000

Cited source for all entries: paper PMC9488889
